- System: UACC-257 melanoma
- experimentDescription: NCI tumour cell line growth inhibition, 48 h; in the data active = GI50 below about 0.43 µM; inactive = the rest
In this exercise, the only acceptable responses are label 1 = active, label 0 = inactive

O=C1/C(=C/c2ccc(Cl)cc2Cl)CN(S(=O)(=O)c2ccccc2)C/C1=C\c1ccc(Cl)cc1Cl ... label 0
COc1ccc(OC)c(N(CCN2C(=O)c3ccccc3C2=O)C(=O)CCl)c1 ... label 0
O=S(=O)(Nc1cccc(Cl)c1)c1ccc(-c2cnc(C3CC3)o2)cc1 ... label 0
COc1ccc2cnc(N)c(C#Cc3cc(C(=O)Nc4ccc(CN5CCN(C)CC5)c(C(F)(F)F)c4)cnc3C)c2c1 ... label 0
Cc1ccc2c(c1)C(=O)C(c1c(-c3[nH]c(=O)c4ccc(C)cc4c3O)c(O)c3ccccc3c1O)=NC2=O ... label 0

Req: For this molecule, state the assay outcome: `COc1ccc2c3c([nH]c2c1)C(=O)c1nc(C)ccc1C3=O`
Resp: label 0

Req: For this molecule, state the assay outcome: COc1cc2c(c(OC)c1OC)-c1ccc(SC)c(=O)cc1C(CC(=O)Oc1ccc(F)cc1)C2 (stereo not drawn)
Resp: label 1

Req: For this molecule, state the assay outcome: `CN(C)c1ccc2nc3ccc(=[N+](C)C)c([N+](=O)[O-])c-3sc2c1`
Resp: label 0

###

- System: K-562 leukemia
- experimentDescription: NCI tumour cell line growth inhibition, 48 h
recordedMetric: TGI

COc1ccc(CN(Cc2ccc(OC)cc2)C(=O)CC2(O)CCc3ccccc3C2)cc1 (stereo not given) ... > 100 µM
Cc1n[nH]c(=O)n1/N=C/c1cccc(Cl)c1 ... > 100 µM
COc1ccc(-c2ncnc(-c3ccc(OC)c(OC)c3)n2)cc1OC ... > 100 µM
N/N=C(\CCN1CCCC1)CC(c1ccccc1)c1c(O)c2ccccc2oc1=O (stereo not given) ... > 100 µM
CCn1cc(C2NC(=O)c3ccccc3N2)c2cccc(C)c21 (stereo not given) ... > 100 µM

Req: Hello, please tell me recorded TGI for this one: `COc1ccc2cnc(N)c(C#Cc3cc(C(=O)Nc4ccc(CN5CCN(C)CC5)c(C(F)(F)F)c4)cnc3C)c2c1`
Resp: 0.749 µM

Req: Hello, please tell me recorded TGI for this one: `Cc1nc2ccccc2c(=O)n1NC(=O)c1ccc(N)cc1`
Resp: > 100 µM

Req: Hello, please tell me recorded TGI for this one: `COc1ccc2c3c([nH]c2c1)C(=O)c1nc(C)ccc1C3=O`
Resp: > 100 µM

Req: Hello, please tell me recorded TGI for this one: `Oc1c(CNCCCN2CCCC2)cc(Cl)c2cccnc12`
Resp: 7.38 µM

Req: Hello, please tell me recorded TGI for this one: `O=C1/C(=C/c2ccc(Cl)cc2Cl)CN(S(=O)(=O)c2ccccc2)C/C1=C\c1ccc(Cl)cc1Cl`
Resp: > 38.3 µM

Req: Hello, please tell me recorded TGI for this one: `COc1ccc(OC)c(N(CCN2C(=O)c3ccccc3C2=O)C(=O)CCl)c1`
Resp: > 70.4 µM

Req: Hello, please tell me recorded TGI for this one: `COc1ccccc1C=NC12CC3CC(CC(C3)C1)C2`
Resp: > 100 µM

###

- Tested on: MCF7 breast
- experimentDescription: NCI tumour cell line growth inhibition, 48 h
Where a SMILES comes first, the peptide text is derived from it. [ ]: non-standard residue; d: D form. The star is where a group is joined. Chg = N[CH](C(=O)O)C1CCCCC1; Cbz = O=C(OCc1ccccc1)*; OBn = c1ccc(CO*)cc1
recordedMetric: TGI

The examples below pair each entry with its known result.
COc1cc(/C=C\c2cc(/C=C\c3ccc(O)c(OC)c3)n(C(=O)COc3ccc(Cl)cc3Cl)n2)ccc1O ... 2.33 µM
COc1ccc(Cc2nn(C3OC(COC(C)=O)C(OC(C)=O)C(OC(C)=O)C3OC(C)=O)c(=S)n(-c3ccc(OC)cc3)c2=O)cc1 (configuration not stated) ... > 100 µM
CC[C@H](C)[C@H](NC(=O)C12CC(NC)(C1)C2)C(=O)N(C)[C@H](C[C@@H](OC(C)=O)c1nc(C(=O)N[C@@H](Cc2ccccc2)C[C@H](C)C(=O)OC)cs1)C(C)C ... > 25 µM
C=C1C(=O)O[C@@H]2C[C@@H]3[C@]4(CC[C@]5(C)[C@@H]([C@H](C)CC/C=C(\C)C=O)CC[C@@]35C)C[C@]4(CCC(=O)OC)[C@H]12 ... 2.9 µM
COC(=O)C(NC(=O)C(CC(=O)OCc1ccccc1)NC(=O)OCc1ccccc1)C1CCCCC1 (configuration not stated) (Cbz-Asp(OBn)-[Chg]-OMe; configuration not given here) ... > 100 µM

Req: Hello, please tell me recorded TGI for this one: CC(=O)Oc1cn(-c2ccc(Cl)cc2)nc1C1=NN(C(C)=O)C(c2ccc(F)cc2F)O1 (configuration not stated)
Resp: > 100 µM

Req: Hello, please tell me recorded TGI for this one: CC(C)=NNC1=NC(C)(C)P(=O)(NNc2ncccn2)S1 (configuration not stated)
Resp: > 100 µM
